test system: Plasmodium falciparum; test: Antimalarial activity against Plasmodium falciparum IMT Bres assessed as incorporation of [3H]hypoxanthine after 48 hrs by scintillation counter; format: functional, organism-based
IC50 by entry:
Quick reminder: number only, in nM, skip the unit.

Previously resolved entries follow.
>  <COMPOUND>
CCNCc1cc(Nc2ccnc3cc(Cl)ccc23)ccc1O [DESETHYL AMODIAQUINE]

>  <IC50 (nM)>
23

$$$$
>  <COMPOUND>
OC(c1cc(C(F)(F)F)nc2c(C(F)(F)F)cccc12)C1CCCCN1 (stereo unspecified) [MEFLOQUINE]

>  <IC50 (nM)>
14

$$$$
>  <COMPOUND>
O=C1C(O)=C([C@H]2CC[C@H](c3ccc(Cl)cc3)CC2)C(=O)c2ccccc21 [ATOVAQUONE]

>  <IC50 (nM)>
2.4

$$$$
>  <COMPOUND>
CC(C)c1c(C(=O)Nc2ccccc2)c(-c2ccccc2)c(-c2ccc(F)cc2)n1CC[C@@H](O)C[C@@H](O)CC(=O)O [ATORVASTATIN]

>  <IC50 (nM)>
2500

$$$$
>  <COMPOUND>
CCCCN(CCCC)CC(O)c1cc(Cl)cc2c1-c1ccc(Cl)cc1/C2=C/c1ccc(Cl)cc1 (stereo unspecified) [LUMEFANTRINE]

>  <IC50 (nM)>
8

$$$$

Query :: # get_value(readout='IC50', item= C[C@H]1[C@@H](O)O[C@@H]2O[C@@]3(C)CC[C@H]4[C@H](C)CC[C@@H]1[C@@]24OO3 [ARTENIMOL] )
Result :: 0.9
